Every entry's value here was drawn from patent US11066369B2.

- Tgt: horseradish peroxidase (HRP) tagged delF508-CFTR (Homo sapiens, UniProt P13569, DEL508-508)
- Construct: expressed in transfected cells
- Sequence (P13569 with tags, fused parts or gaps DEL508-508): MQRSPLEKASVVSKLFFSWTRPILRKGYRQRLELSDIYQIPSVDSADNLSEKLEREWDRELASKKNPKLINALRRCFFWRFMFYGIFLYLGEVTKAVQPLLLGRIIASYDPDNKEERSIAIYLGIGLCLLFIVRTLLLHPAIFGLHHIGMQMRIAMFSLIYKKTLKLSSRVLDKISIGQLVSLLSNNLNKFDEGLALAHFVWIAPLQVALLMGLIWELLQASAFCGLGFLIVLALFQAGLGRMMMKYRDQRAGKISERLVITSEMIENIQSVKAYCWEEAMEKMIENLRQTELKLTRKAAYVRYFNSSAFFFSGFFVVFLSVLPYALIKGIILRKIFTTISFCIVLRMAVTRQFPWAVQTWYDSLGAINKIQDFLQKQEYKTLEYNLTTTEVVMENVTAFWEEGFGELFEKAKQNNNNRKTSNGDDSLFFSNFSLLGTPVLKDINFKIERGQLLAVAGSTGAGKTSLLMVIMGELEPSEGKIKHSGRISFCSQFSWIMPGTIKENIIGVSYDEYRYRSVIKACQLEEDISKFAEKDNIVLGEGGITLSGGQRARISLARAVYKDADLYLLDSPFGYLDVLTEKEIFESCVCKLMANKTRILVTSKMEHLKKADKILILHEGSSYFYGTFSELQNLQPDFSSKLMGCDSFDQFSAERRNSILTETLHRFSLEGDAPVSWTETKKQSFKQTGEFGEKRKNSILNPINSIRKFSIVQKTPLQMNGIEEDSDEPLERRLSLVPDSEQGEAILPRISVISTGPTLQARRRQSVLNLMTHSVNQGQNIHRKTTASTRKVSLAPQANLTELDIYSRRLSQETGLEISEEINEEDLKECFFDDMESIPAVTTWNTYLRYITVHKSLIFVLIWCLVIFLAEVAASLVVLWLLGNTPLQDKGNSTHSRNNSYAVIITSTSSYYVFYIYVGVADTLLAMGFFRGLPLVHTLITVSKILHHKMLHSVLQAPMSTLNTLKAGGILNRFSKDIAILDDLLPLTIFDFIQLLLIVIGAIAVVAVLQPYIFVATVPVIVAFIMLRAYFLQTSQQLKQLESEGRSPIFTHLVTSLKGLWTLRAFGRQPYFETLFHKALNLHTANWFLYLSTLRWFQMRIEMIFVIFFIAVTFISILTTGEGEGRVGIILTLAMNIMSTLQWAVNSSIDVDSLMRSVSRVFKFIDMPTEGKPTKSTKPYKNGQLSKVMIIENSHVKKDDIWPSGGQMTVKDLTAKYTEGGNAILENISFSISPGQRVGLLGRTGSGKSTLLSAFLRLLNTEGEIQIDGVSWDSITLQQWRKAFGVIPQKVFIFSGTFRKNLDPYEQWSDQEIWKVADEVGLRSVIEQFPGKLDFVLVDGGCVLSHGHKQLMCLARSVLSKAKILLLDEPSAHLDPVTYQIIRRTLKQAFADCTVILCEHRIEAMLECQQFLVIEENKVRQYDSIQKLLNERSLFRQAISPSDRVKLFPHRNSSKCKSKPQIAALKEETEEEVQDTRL
- Experiment Description: Measurement of delF508-CFTR-HRP surface expression in CFBE41o- cells
- Type: cell-based
- Test Context: delF508-CFTR-HRP surface expression, CFBE41o- cells; read-out: DelF508-CFTR-HRP EC50
Attribute Measured: EC50 (nM)

Solved cases (6 shown):
Compound	Numeric Value
CCOC(=O)C1(C)CCN(c2cccc(S(=O)(=O)Nc3ccc(Cl)c(-c4ccccc4C)n3)n2)CC1 [Example 254]	2590
Cc1ccccc1-c1nc(NS(=O)(=O)c2ccc(N)nc2)ccc1Cl [Example 40]	2360
Cc1c(F)cccc1-c1nc(NS(=O)(=O)c2cccc(N)n2)ccc1Cl [Example 12]	1320
Nc1cccc(S(=O)(=O)Nc2ccc(Cl)c(-c3c(F)cccc3F)n2)n1 [Example 80]	2280
Nc1cccc(S(=O)(=O)Nc2ccc(Cl)c(-c3ccccc3OC(F)(F)F)n2)n1 [Example 59]	1100
CC1(C(=O)O)CCN(c2cccc(S(=O)(=O)Nc3ccc(C(F)(F)F)c(-c4ccccc4C4CCC4)n3)n2)CC1 [Example 363]	705

a: Cc1ccccc1-c1nc(NS(=O)(=O)c2cccc(N3CCC(C)(C(=O)O)C3)n2)ccc1C(F)(F)F (stereo not drawn) [Example 336]
b: Cc1ccc(C#N)cc1-c1nc(NS(=O)(=O)c2cccc(N3CCNCC3)n2)ccc1Cl [Example 312]
Quick check, higher EC50 between a and b ? Bench note: the answer is the label of the chosen record.
b
(b: 3970 nM, a: 1760 nM)

====

- Tgt: delF508-CFTR (Homo sapiens, UniProt P13569, DEL508-508)
- Construct: functional activity of the CFTR channel (Chloride ion transport) in patient derived primary human bronchial epithelial cells
- Sequence (P13569 with tags, fused parts or gaps DEL508-508): as above
- Experiment Description: Measurement of delF508-CFTR functional activity in primary human bronchial epithelial cells (HBECs) using Multi-Transepithelial Clamp Circuit (MTECC-24) assay
- Test Context: primary CF HBECs; test compound added 24h before assay, in the presence of potentiator; mean of at least two replicates; read-out: MTECC24 CFHBEC- EC50
pEC50: −log10 of the molar value. Structures can show the parent of a compound that is named as a salt.
Attribute Measured: pEC50

Field: example entries. Status: answers known.
Compound	pEC50
Cc1ccccc1-c1nc(NS(=O)(=O)c2cccc(N3CC(O)C3)n2)ccc1C(F)(F)F [Example 233]	8.28
O=C(O)[C@H]1CCCN(c2cccc(S(=O)(=O)Nc3ccc(C(F)(F)F)c(-c4ccccc4C4CCC4)n3)n2)C1 [Example 367]	8.85
Cc1cccc(C)c1-c1nc(NS(=O)(=O)c2cccc(N)n2)ccc1Cl [Example 11]	7.87
Cc1ccccc1-c1nc(NS(=O)(=O)c2cccc(N3CCC(C)(C(=O)O)CC3)n2)ccc1C(F)(F)F [Example 264]	7.93
Cc1ccccc1-c1nc(NS(=O)(=O)c2cccc(O[C@@H]3COC[C@@]3(C)O)n2)ccc1C(F)(F)F (single isomer, unassigned) [Example 295]	7.58

1: Cc1cccc(C)c1-c1nc(NS(=O)(=O)c2cccc(N[C@H]3C[C@H](O)C3)n2)ccc1Cl [Example 287]
2: Cc1ccc(C(F)(F)F)cc1-c1nc(NS(=O)(=O)c2cccc(N3CCNCC3)n2)ccc1Cl [Example 169, Hydrochloride]
Please indicate which item has the smaller measured pEC50: 1 versus 2 Give the label under which the chosen entry appears.
2
(2: 6.84, 1: 8.15)

A: Cc1ccccc1-c1nc(NS(=O)(=O)c2cccc(N3CCN(C)C(=O)C3)n2)ccc1C(F)(F)F [Example 196]
B: Nc1cccc(S(=O)(=O)Nc2ccc(Cl)c(-c3ccc(F)cc3Cl)n2)n1 [Example 56]
C: O=S(=O)(Nc1ccc(Cl)c(-c2ccc(F)cc2Cl)n1)c1cccc(N2CC(O)C2)n1 [Example 214]
D: Cc1ccc(F)cc1-c1nc(NS(=O)(=O)c2cccc(N3C[C@@H](C)N[C@@H](C)C3)n2)ccc1C(F)(F)F [Example 178, Hydrochloride]
Rank the 4 compounds: largest pEC50 first, smallest last. Write the labels, ordered according to the request.
A, B, C, D

A: Cc1ccccc1-c1nc(NS(=O)(=O)c2cccc(N[C@H]3C[C@@](C)(C(=O)O)C3)n2)ccc1C(F)(F)F [Example 356]
B: Cc1ccc(F)cc1-c1nc(NS(=O)(=O)c2cccc(N3CCN(C)CC3)n2)ccc1C(F)(F)F [Example 179]
C: Cc1ccccc1-c1nc(NS(=O)(=O)c2cccc(N3CCN(C4COC4)CC3)n2)ccc1C(F)(F)F [Example 187]
D: CCOC(=O)C1(C)CCN(c2cccc(S(=O)(=O)Nc3ccc(Cl)c(-c4cc(F)ccc4C)n3)n2)CC1 [Example 256]
E: Cc1ccc(F)cc1-c1nc(NS(=O)(=O)c2cccc(N3CCN[C@@H](C)C3)n2)ccc1C(F)(F)F [Example 177, Hydrochloride]
Please list the entries, largest pEC50 first. Reply: labels, ordered per the request.
D, A, B, C, E
(D: 8.54, A: 8.13, B: 7.50, C: 7.04, E: 6.64)
